Attribution: paper PMC10786891

Biological target: T1, EsCas13d, nuclease-dead (Eubacterium siraeum, UniProt B0MS50, R295A;H300A;R849A;H854A)
T1 sequence: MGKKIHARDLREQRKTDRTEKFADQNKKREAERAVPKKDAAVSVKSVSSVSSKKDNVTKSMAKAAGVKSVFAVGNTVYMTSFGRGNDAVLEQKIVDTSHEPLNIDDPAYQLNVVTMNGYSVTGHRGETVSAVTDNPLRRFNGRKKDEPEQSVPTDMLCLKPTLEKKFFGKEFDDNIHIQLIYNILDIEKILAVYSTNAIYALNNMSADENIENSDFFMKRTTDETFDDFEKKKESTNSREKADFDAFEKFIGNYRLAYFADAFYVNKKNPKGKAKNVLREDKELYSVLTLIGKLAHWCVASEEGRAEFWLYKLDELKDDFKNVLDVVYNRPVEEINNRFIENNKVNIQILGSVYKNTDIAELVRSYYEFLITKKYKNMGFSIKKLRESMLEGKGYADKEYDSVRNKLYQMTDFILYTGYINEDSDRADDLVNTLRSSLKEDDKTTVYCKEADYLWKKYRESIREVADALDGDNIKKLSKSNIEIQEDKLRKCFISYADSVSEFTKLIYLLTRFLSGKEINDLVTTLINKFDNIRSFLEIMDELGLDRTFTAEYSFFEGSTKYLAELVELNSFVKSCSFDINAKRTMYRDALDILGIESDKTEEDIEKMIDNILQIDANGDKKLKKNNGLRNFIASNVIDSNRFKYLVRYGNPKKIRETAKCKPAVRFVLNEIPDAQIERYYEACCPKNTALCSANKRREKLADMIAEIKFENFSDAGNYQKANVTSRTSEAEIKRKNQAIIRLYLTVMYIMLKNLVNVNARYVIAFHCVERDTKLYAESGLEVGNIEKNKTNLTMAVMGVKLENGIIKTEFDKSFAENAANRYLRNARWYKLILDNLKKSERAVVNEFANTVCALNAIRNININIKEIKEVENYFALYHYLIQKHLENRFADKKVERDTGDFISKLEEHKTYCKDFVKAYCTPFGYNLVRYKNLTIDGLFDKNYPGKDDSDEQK
Test: crRNA (strand 1, pre-loaded); Mg2+; 40 mM Tris-HCl pH 7.5, 150 mM NaCl, 6 mM MgCl2, 1 mM DTT, 0.1% Tween-20, 0.2 mg/ml BSA; 25 C; 10 min per concentration, then washed
Conditions: tags: His6-TwinStrep-SUMO cleaved; N-terminal SNAP kept (SNAP-Surface 488); label: 3' end held by stalled T7 RNA polymerase
experimental-endpoint: log10 Kd (log10 of the value in µM)
Heads up, the numbers here are log10 of Kd in µM units.

Example cases with answers are listed next.
{"columns": ["binder", "log10 Kd"],
 "data": [
  ["target 1 G13A,A20U (mixed) RNA 1: CACCCGUGCAAAAAUGCAGGGGUCUAAAACUGAGCGGAUAACCUCUCUAUGG RNA 2: GGGAAUGGAUCCACAUCUACGAAUUCGUACCUUAGAGAAGUUAUCCGCUCACCGAGAUCGGAAGAGCACACGU", -1.84],
  ["target 2 MT 5'PFS UUG 3'PFS ACU (mixed) RNA 1: CACCCGUGCAAAAUUGCAGGGGUCUAAAACCUUCUCCAAAUUGUUUCAUCCU RNA 2: GGGAAUGGAUCCACAUCUACGAAUUCUUGAGGAUGAAACAAUUUGGAGAAGACUAGAUCGGAAGAGCACACGU", -1.79],
  ["target 2 MT 5'PFS GUG 3'PFS AUC (mixed) RNA 1: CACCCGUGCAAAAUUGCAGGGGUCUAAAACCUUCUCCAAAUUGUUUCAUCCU RNA 2: GGGAAUGGAUCCACAUCUACGAAUUCGUGAGGAUGAAACAAUUUGGAGAAGAUCAGAUCGGAAGAGCACACGU", -1.97],
  ["target 1 MT 5'PFS AGU 3'PFS AAG (mixed) RNA 1: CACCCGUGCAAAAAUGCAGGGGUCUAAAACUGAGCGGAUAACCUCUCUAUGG RNA 2: GGGAAUGGAUCCACAUCUACGAAUUCAGUCCAUAGAGAGGUUAUCCGCUCAAAGAGAUCGGAAGAGCACACGU", -1.26]
]}

Below are 7 binders. Give each one its log10 Kd.
1. target 1 C2U,U11G (mixed) RNA 1: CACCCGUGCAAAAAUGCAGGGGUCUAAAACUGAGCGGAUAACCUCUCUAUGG RNA 2: GGGAAUGGAUCCACAUCUACGAAUUCGUACCAUAGAGAGGGUAUCCGCUUACCGAGAUCGGAAGAGCACACGU
2. target 1 insU 3' of 6,insC 3' of 5 (mixed) RNA 1: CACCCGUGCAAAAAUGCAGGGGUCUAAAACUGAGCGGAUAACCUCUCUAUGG RNA 2: GGGAAUGGAUCCACAUCUACGAAUUCGUACCAUAGAGAGGUUAUCCUGCCUCACCGAGAUCGGAAGAGCACACGU
3. target 3 insA 3' of 14,insG 3' of 2 (mixed) RNA 1: CACCCGUGCAAAAUUGCAGGGGUCUAAAACGACCUGAAUAUUUCAGAUCAAA RNA 2: GGGAAUGGAUCCACAUCUACGAAUUCGUUUUUGAUCUGAAAAUAUUCAGGUGCUGCAGAUCGGAAGAGCACACGU
4. target 1 insG 3' of 9,insA 3' of 2 (mixed) RNA 1: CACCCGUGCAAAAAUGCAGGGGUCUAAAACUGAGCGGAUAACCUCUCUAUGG RNA 2: GGGAAUGGAUCCACAUCUACGAAUUCGUACCAUAGAGAGGUUAGUCCGCUCAACCGAGAUCGGAAGAGCACACGU
5. target 1 del1,del4 (mixed) RNA 1: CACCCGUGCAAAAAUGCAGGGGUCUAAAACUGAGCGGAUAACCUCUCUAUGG RNA 2: GGGAAUGGAUCCACAUCUACGAAUUCGUACCAUAGAGAGGUUAUCCGUCCCGAGAUCGGAAGAGCACACGU
6. target 1 insA 3' of 11,insU 3' of 5 (mixed) RNA 1: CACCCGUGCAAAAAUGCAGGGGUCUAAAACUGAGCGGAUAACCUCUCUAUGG RNA 2: GGGAAUGGAUCCACAUCUACGAAUUCGUACCAUAGAGAGGUAUAUCCGUCUCACCGAGAUCGGAAGAGCACACGU
7. target 1 del8 (mixed) RNA 1: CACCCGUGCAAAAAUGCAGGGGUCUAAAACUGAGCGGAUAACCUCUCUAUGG RNA 2: GGGAAUGGAUCCACAUCUACGAAUUCGUACCAUAGAGAGGUUACCGCUCACCGAGAUCGGAAGAGCACACGU

1: -1.74; 2: -1.86; 3: -1.48; 4: -1.67; 5: -1.38; 6: -1.73; 7: -1.98
